Recorded values, source the supplement of paper PMC10567573.

B1: WDFY2 (parent)
chain: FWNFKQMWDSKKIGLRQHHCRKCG

# Variants of: B1
# assay-notes: protein stability index of a GFP-peptide fusion (GPS, HEK-293T) (PSI 1-6); higher = more stable;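 note: lentivirally expressed fusions sorted by FACS into six bins by GFP to DsRed ratio, PSI derived from sequencing read proportions per bin multiplied by bin number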
# conditions: c terminus: a fixed tail appended
protein stability index values, listed per item
Respond using a number only.

Please review the entries below; each comes with its answer.
biopolymer-sequence: FWNFKQMWDSKKIDLRQHHCRKCG [G14D]
experimental-value: 2.41
//
biopolymer-sequence: FWNFKQMWDSKKIGLRSHHCRKCG [Q17S]
experimental-value: 1.99
//
biopolymer-sequence: FWNFKQMWDSKKIGLRQHICRKCG [H19I]
experimental-value: 2.22
//
biopolymer-sequence: FWNFKQMWDSKKIGLRQHNCRKCG [H19N]
experimental-value: 2.68
//
biopolymer-sequence: FWNFKQMWGSKKIGLRQHHCRKCG [D9G]
experimental-value: 1.77
//
biopolymer-sequence: FWNHKQMWDSKKIGLRQHHCRKCG [F4H]
experimental-value: 2.47
//
biopolymer-sequence: FWNFKCMWDSKKIGLRQHHCRKCG [Q6C]
experimental-value: 2.34
//
biopolymer-sequence: FWNFKQMWDSKKIGLRQHHCIKCG [R21I]
experimental-value: 1.29

Short answer for FWNFKQMWDSKKIGLRRHHCRKCG [Q17R] : protein stability index was 2

Short answer for FWNFKQMGDSKKIGLRQHHCRKCG [W8G] : protein stability index was 2.48

Short answer for FWNFKQMWDSKKIGLRQQHCRKCG [H18Q] : protein stability index was 1.44

Short answer for FWNFKKMWDSKKIGLRQHHCRKCG [Q6K] : protein stability index was 2.44
